Target: Fibroblast growth factor receptor 1 (Homo sapiens) (UniProt P11362);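 note: values are reported as mean percent inhibition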
Sequence (P11362 22-822 limits assumed): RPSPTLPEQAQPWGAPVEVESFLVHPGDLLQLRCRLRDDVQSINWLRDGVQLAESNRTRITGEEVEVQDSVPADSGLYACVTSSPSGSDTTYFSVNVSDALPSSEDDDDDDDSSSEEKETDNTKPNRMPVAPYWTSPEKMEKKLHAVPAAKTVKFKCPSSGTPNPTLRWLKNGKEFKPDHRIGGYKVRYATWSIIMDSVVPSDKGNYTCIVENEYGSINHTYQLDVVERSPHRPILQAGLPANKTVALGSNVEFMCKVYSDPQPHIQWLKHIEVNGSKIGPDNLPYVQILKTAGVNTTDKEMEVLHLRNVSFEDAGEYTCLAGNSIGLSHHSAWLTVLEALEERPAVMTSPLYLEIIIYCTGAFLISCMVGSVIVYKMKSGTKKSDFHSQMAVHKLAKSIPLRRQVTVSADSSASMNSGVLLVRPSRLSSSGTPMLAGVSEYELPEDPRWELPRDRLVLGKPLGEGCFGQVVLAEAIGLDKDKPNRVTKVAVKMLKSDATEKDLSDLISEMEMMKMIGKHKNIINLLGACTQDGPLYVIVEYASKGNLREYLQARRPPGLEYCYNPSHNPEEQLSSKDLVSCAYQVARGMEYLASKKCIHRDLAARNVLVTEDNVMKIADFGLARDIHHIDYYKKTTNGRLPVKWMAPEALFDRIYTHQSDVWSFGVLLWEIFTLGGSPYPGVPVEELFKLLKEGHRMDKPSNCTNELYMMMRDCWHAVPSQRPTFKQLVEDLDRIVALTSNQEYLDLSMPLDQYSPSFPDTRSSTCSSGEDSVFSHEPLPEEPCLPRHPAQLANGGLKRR
Conditions: at 0.1 µM
Parameter: inhibition. Scope: all listed entries.
Just the number in %, nothing appended.

Check out these entries, answers already filled in.
[[record]]
smiles_text = "C#Cc1cccc(Nc2ncnc3ccc(OCCCCNCCS(C)(=O)=O)cc23)c1"
endpoint = "inhibition"
value_units = "%"
measured = 0.37

[[record]]
smiles_text = "COc1cc(C)c(N(C)C(=O)CN(C)C)cc1Nc1nc(Nc2cccc(F)c2C(N)=O)c2cc[nH]c2n1"
endpoint = "inhibition"
value_units = "%"
measured = 0.07

[[record]]
smiles_text = "Fc1ccc(-c2ncn(CCCN3CCOCC3)c2-c2ccncc2)cc1"
endpoint = "inhibition"
value_units = "%"
measured = 0.01

[[record]]
smiles_text = "NC(=O)c1cc(-c2ccc(F)cc2)cc(-c2ccncc2)c1N"
endpoint = "inhibition"
value_units = "%"
measured = 5.1


Req: // query inhibition value for entry "O=C(Nc1ccc(Oc2ccc3[nH]c(NC(=O)c4ccccc4)nc3c2)cc1)Nc1cc(C(F)(F)F)ccc1F"
Resp: 2.35

Req: inhibition lookup needed for "NC(=O)c1cc(-c2ccncc2)cc(-c2ccccc2)c1N" , thanks.
Resp: 8.68

Req: Would you mind telling me what inhibition value was observed for "Cc1ccc(NC(=O)c2ccoc2)cc1-c1ccc(C(=O)NCC2CC2)cc1" ?
Resp: 11.2

Req: Item under review: "O=C(Nc1n[nH]c2nc(-c3ccco3)ccc12)C1CC1" . Reported inhibition?
Resp: 2.13

Req: Using the record for "Fc1ccc(-c2nc3n(c2-c2ccncc2)CCS3)cc1" , report its inhibition.
Resp: -4.07

Req: Quick one: inhibition for "CCc1nccc2c1nc(-c1nonc1N)n2CC" ?
Resp: -0.52

Req: Request the reported inhibition associated with "CCc1cccc(CC)c1/C=C/c1cncc(C(=O)NC)c1"
Resp: 5.4

###

Target: Insulin receptor-related protein (Homo sapiens) (UniProt P14616);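 note: each reported figure is the mean of the IRR inhibition readings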
Sequence (P14616 27-742 limits assumed): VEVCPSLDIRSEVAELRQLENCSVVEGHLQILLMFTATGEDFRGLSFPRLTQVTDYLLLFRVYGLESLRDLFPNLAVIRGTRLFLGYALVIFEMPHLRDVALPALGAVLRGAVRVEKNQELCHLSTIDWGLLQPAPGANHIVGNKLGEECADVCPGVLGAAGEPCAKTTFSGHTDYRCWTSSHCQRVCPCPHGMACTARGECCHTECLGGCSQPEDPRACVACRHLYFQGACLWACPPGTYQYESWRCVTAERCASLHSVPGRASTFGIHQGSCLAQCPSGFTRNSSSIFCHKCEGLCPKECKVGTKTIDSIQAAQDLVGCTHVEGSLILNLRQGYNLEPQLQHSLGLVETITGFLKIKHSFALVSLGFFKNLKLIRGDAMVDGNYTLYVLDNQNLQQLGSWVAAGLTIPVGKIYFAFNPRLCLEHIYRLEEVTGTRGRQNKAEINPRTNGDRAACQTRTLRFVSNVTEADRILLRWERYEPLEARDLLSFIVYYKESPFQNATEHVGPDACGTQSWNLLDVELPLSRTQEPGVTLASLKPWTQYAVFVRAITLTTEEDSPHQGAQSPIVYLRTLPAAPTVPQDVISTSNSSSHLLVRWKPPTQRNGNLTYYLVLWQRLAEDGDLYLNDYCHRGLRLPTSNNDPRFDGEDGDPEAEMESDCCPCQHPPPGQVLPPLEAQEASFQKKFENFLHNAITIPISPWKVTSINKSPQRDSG
Sequence (P14616 747-1297 limits assumed): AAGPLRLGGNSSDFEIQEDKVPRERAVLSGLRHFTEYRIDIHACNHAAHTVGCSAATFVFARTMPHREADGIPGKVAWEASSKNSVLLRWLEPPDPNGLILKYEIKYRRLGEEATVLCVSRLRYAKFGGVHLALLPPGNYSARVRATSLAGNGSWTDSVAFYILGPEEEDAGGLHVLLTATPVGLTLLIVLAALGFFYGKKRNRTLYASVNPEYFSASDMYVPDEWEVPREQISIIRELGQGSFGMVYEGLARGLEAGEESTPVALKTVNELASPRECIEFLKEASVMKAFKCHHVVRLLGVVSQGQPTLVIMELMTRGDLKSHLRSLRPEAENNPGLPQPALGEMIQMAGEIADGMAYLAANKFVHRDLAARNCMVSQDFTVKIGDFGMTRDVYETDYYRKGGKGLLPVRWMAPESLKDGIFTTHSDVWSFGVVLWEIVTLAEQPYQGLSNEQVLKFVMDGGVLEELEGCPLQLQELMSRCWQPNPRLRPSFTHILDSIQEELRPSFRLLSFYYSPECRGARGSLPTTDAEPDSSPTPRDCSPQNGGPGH
Conditions: at 1 µM
Form field: inhibition (one value per entry).
Numeric answer only, unit % assumed.

Req: I would be grateful if you could share the reported inhibition for "COc1cc(Nc2ncc3c(C)nc(-c4cccc(Oc5ccccc5)c4)n3n2)cc(OC)c1OC" .
Resp: 3.66

Req: Bench note: what inhibition did "CS(=O)(=O)CCNCc1ccc(-c2ccc3ncnc(Nc4ccc(OCc5ccccc5)c(Br)c4)c3c2)o1" show?
Resp: 2.95

Req: Find the recorded inhibition belonging to "O=C1Nc2ccc(I)cc2C1=Cc1cc(Br)c(O)c(Br)c1" and report it.
Resp: 2.5

Req: I would be grateful if you could share the reported inhibition for "O=C(Nc1n[nH]c2nc(-c3ccco3)ccc12)C1CC1" .
Resp: 0.79

Req: Using the record for "Cc1ccc(C(=O)NC2CCC2)cc1-c1ccc(C(=O)NCC2CC2)cc1" , report its inhibition.
Resp: 1.77

Req: Entry under review: "O=C(NCC1CC1)c1ccc(-c2cccc(C(=O)NC3CC3)c2)cc1" . Reported inhibition?
Resp: 2.93

Req: If you can, please state the reported inhibition value of "Cc1nnc(-c2ccc(C)c(-c3ccc(C(=O)NCc4ccc(Cl)cc4)cc3)c2)o1" .
Resp: 1.98

Req: Give its inhibition value. Item: "CN(c1ccc(NC(=O)Nc2c(Cl)cccc2Cl)cc1)c1ccnc(Nc2cccc(CS(C)(=O)=O)c2)n1"
Resp: 4.71

Req: Entry under review: "CCc1nccc2c1nc(-c1nonc1N)n2CC" . Reported inhibition?
Resp: -1.07

Req: Entry "O=C(Nc1n[nH]c2cc(-c3cc(F)ccc3F)ccc12)C1CC1" : reported inhibition = ?
Resp: 0.94

###

The compounds listed here are annotated with their inhibition.
System: Leucine-rich repeat serine/threonine-protein kinase 2 (Homo sapiens), Q5S007 [G2019S]
Conditions: at 0.1 µM
Just the number please, in %, no unit attached.

Previously resolved entries follow.
[[record]]
smiles_text = "COc1cc2ncn(-c3cc(OCc4cccs4)c(C(N)=O)s3)c2cc1OC"
endpoint = "inhibition"
measured = 15.9

[[record]]
smiles_text = "CCc1cccc(CC)c1/C=C/c1cncc(C(=O)NC)c1"
endpoint = "inhibition"
measured = 2.33


Req: Which value of inhibition has been reported for "CS(=O)(=O)CCNCc1cc(-c2cc3c(Nc4ccc(OCc5cccc(F)c5)c(Cl)c4)ncnc3s2)cs1" in the records?
Resp: 1.2

Req: Query (compound): "Fc1ccc(-c2ncn(C3CCNCC3)c2-c2ccnc(Oc3ccc4c(c3)OCO4)n2)cc1" ; field requested: inhibition
Resp: 6.45

Req: Report inhibition for "O=C(Nc1n[nH]c2cc(-c3ccccc3)ccc12)C1CC1" please.
Resp: 3.85

###

Molecular target: MAP kinase-activated protein kinase 2 (Homo sapiens);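 note: values are mean inhibition from the GSK PKIS screen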
Details: at 1 µM
Endpoint: inhibition (%)
# output: bare number, implied unit %

Req: Look up inhibition: "CCS(=O)(=O)c1ccc(OC)c(Nc2ncc(-c3ccccc3Cl)o2)c1"
Resp: -0.21

###

Target: Phosphorylase b kinase gamma catalytic chain, skeletal muscle/heart isoform (Homo sapiens);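 note: each value is a mean percent inhibition of PHKG1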
Conditions: at 1 µM
Endpoint: inhibition (%)
The reply should contain only the number, in %.

Worked examples follow.
[[record]]
compound = "CS(=O)(=O)CCNCc1cc(-c2cc3c(Nc4ccc(OCc5cccc(F)c5)c(Cl)c4)ncnc3s2)cs1"
value_units = "%"
measured = 3.57

[[record]]
compound = "Cc1nnc(-c2ccc(C)c(-c3ccc(C(=O)NCc4ccc(Cl)cc4)cc3)c2)o1"
value_units = "%"
measured = 5.75

[[record]]
compound = "COc1ccc2ncn(-c3cc(O[C@H](C)c4ccccc4Cl)c(C(N)=O)s3)c2c1"
value_units = "%"
measured = 7.62

[[record]]
compound = "COc1cc2ncn(-c3cc(OCCc4ccccc4)c(C(N)=O)s3)c2cc1OC"
value_units = "%"
measured = 2.4

[[record]]
compound = "Cc1ccc(NC(=O)c2ccoc2)cc1-c1ccc(C(=O)NCC2CC2)cc1"
value_units = "%"
measured = 1.73


Req: Return inhibition measured with Phosphorylase b kinase gamma catalytic chain, skeletal muscle/heart isoform (Homo sapiens) given this compound: "CCN(CC)Cc1ccc(Nc2nccc(-c3cnn4ncccc34)n2)cc1"
Resp: 28.2

Req: What is its inhibition for Phosphorylase b kinase gamma catalytic chain, skeletal muscle/heart isoform (Homo sapiens)? Entry: "COc1cc(N2CCN(C(C)C)CC2)ccc1Nc1nc(Nc2ccc(F)cc2C(=O)NC[C@@H](O)CO)c2cc[nH]c2n1"
Resp: 62

Req: Form field - read-out: inhibition; system: Phosphorylase b kinase gamma catalytic chain, skeletal muscle/heart isoform (Homo sapiens); submitted item: "CCc1cccc(CC)c1/C=C/c1cncc(C(=O)NC)c1"
Resp: 3.16

###

Target: Serine/threonine-protein kinase SIK1 (Homo sapiens) (UniProt P57059);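 note: mean inhibition value from the GSK PKIS profiling set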
Sequence (P57059 whole entry): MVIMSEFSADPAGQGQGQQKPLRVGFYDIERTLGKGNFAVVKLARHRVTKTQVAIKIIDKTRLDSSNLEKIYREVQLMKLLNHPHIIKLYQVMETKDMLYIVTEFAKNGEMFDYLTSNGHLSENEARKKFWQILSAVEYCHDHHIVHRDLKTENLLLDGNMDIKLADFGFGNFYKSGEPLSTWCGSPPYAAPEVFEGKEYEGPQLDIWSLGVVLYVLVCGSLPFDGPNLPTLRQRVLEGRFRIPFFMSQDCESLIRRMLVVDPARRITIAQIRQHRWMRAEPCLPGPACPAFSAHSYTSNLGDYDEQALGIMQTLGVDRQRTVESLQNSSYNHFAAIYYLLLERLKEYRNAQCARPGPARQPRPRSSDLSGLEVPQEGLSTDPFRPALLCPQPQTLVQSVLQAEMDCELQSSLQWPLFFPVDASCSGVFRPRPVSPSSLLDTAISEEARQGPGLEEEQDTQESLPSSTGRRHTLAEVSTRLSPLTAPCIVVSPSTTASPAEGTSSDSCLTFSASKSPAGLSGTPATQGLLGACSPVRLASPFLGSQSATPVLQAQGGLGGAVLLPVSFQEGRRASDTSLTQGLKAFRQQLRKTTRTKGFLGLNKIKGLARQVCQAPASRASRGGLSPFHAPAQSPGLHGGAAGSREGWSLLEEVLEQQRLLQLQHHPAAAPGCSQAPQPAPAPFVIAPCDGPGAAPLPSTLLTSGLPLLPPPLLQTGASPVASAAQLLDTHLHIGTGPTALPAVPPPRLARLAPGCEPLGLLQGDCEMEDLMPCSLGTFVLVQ
Details: at 1 µM
Catalogue of molecules with associated inhibition
Respond numerically; units are % and should not be typed.

[[record]]
molecule = "NC(=O)c1ccc(Oc2nccc(-c3c(-c4ccc(F)cc4)ncn3C3CCNCC3)n2)cc1"
measured = 11.3


Switching to the query record.
Req: Please look up its inhibition: "FC(F)(F)c1cccc(Nc2nccc(-c3cnn4nc(-c5ccccc5)ccc34)n2)c1"
Resp: 7

###

Molecular target: Serine/threonine-protein kinase PAK 6 (Homo sapiens) (UniProt Q9NQU5)
Sequence (Q9NQU5 whole entry, looked up): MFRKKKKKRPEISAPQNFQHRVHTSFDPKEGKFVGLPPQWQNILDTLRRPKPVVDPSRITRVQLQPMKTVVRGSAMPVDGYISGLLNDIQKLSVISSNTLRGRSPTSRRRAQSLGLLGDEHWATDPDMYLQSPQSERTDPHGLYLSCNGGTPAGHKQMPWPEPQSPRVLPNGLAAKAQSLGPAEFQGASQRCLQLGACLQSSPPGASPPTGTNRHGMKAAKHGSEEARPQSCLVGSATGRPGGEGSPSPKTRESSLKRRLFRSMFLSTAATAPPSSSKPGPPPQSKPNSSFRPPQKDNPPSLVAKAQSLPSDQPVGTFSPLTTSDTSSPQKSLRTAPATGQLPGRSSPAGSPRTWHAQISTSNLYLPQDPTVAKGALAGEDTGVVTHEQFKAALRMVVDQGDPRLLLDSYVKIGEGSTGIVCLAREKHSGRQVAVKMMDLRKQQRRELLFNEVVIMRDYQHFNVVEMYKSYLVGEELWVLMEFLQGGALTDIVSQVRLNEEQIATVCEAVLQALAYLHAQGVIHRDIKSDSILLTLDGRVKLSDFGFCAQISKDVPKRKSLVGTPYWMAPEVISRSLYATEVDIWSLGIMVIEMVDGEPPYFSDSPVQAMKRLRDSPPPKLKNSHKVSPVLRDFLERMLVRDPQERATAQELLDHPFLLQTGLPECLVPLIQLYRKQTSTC
Settings: at 1 µM
Endpoint: inhibition (%)
Response body: numeric value in %, unit text excluded.

Example compounds with recorded inhibition:
[[record]]
smiles_text = "C[C@@H](Oc1cc(-n2cnc3ccc(OCC4CCN(C)CC4)cc32)sc1C(N)=O)c1ccccc1Cl"
measured = -3.14

[[record]]
smiles_text = "CN(c1ccc(NC(=O)Nc2c(Cl)cccc2Cl)cc1)c1ccnc(Nc2cccc(CS(C)(=O)=O)c2)n1"
measured = 0.99

[[record]]
smiles_text = "CNC(=O)c1cncc(/C=C/c2c(C)cccc2C)c1"
measured = 2.54

[[record]]
smiles_text = "COc1cc(N2CCN(C(C)C)CC2)ccc1Nc1nc(Nc2ccc(F)cc2C(=O)NC[C@@H](O)CO)c2cc[nH]c2n1"
measured = -2.37


Req: Item: "COc1cc2ncn(-c3cc(OCc4cccs4)c(C(N)=O)s3)c2cc1OC" Test system: Serine/threonine-protein kinase PAK 6 (Homo sapiens) (UniProt Q9NQU5) Read-out: inhibition Value: ?;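 note: values are mean percent inhibition of PAK6 kinase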
Resp: 11

###

Biological target: Casein kinase I isoform gamma-3 (Homo sapiens)
Settings: at 1 µM
Each entry below carries its recorded inhibition.
Form entry: value (%) — number only.

[[record]]
compound = "c1ccc(-c2n[nH]cc2-c2ccnc(-c3ccc(OCCN4CCOCC4)cc3)c2)nc1"
measured = 2.07

[[record]]
compound = "Nc1nccc(-c2c(-c3ccc(F)cc3)ncn2C2CCC(O)CC2)n1 (stereo not given)"
measured = 10.8

[[record]]
compound = "COc1ccc2cc(-c3c(-c4ccncc4)nc(-c4ccc(S(C)(=O)=O)cc4C)n3C)ccc2c1"
measured = 2.13

[[record]]
compound = "NS(=O)(=O)c1ccc(N/N=C2\\C(=O)Nc3ccc(-c4cnco4)cc32)cc1"
measured = 0.29

[[record]]
compound = "O=C(Nc1n[nH]c2cc(-c3ccccc3)ccc12)C1CC1"
measured = 4.52

[[record]]
compound = "Cc1nnc(-c2ccc(C)c(-c3ccc(C(=O)NCc4ccc(Cl)cc4)cc3)c2)o1"
measured = -0.65

[[record]]
compound = "COc1cc(Nc2ncc(-c3ccccc3)o2)cc(OC)c1OC"
measured = -0.18

[[record]]
compound = "Fc1ccc(-c2c(-c3ccncc3)nc3n2CCS3)cc1"
measured = -1.19


Req: Test system Casein kinase I isoform gamma-3 (Homo sapiens); read-out inhibition; what value for "COc1cc(N2CCN(C(C)C)CC2)ccc1Nc1nc(Nc2ccc(F)cc2C(=O)NC[C@@H](O)CO)c2cc[nH]c2n1" ?;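 note: mean inhibition of CK1-g3, GSK PKIS screen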
Resp: 31.8
